Target: T1, SspB (Escherichia coli, UniProt P0AFZ3 1-165)
T1 chain: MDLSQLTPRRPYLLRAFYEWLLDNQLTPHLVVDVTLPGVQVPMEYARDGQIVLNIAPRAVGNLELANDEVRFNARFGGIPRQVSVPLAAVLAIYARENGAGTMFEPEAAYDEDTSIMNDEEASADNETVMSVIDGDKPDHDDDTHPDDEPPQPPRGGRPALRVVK
Assay: MST
No end group written: not given here.
ENDPOINT_LABEL: Ka (M⁻¹)
Express it in M⁻¹; write the number only.

In: Requested field: Ka. Item: eGFP-AANDENYSENYALAA (ssrA tag variant with the SENY linker between AANDENY and ALAA, appended to the C-terminus of eGFP; Degron fused to the C-terminus of His-TEV-eGFP; source: E. coli ΔclpP Keio strain (JW0427) (earlier Top10), pBAD, purified (HisTrap and Superdex200 in tandem); not shown: His-TEV, N-terminal, kept; eGFP, N-terminal, kept) [eGFP-AANDENYSENYALAA]
Out: 7.8e+06

In: Requested field: Ka. Item: eGFP-AANDENYAANDENY (two repeats of the AANDENY motif of the ssrA tag, appended to the C-terminus of eGFP; Degron fused to the C-terminus of His-TEV-eGFP; source: E. coli ΔclpP Keio strain (JW0427) (earlier Top10), pBAD, purified (HisTrap and Superdex200 in tandem); not shown: His-TEV, N-terminal, kept; eGFP, N-terminal, kept) [eGFP-AANDENYAANDENY]
Out: 9.56e+06

In: Requested field: Ka. Item: eGFP-AANDENY (AANDENY motif of the E. coli ssrA tag, appended to the C-terminus of eGFP; Degron fused to the C-terminus of His-TEV-eGFP; source: E. coli ΔclpP Keio strain (JW0427) (earlier Top10), pBAD, purified (HisTrap and Superdex200 in tandem); not shown: His-TEV, N-terminal, kept; eGFP, N-terminal, kept) [eGFP-AANDENY]
Out: 1.08e+07

In: Requested field: Ka. Item: eGFP-AANDENYADAS (ssrA tag variant with the C-terminal ALAA replaced by ADAS, appended to the C-terminus of eGFP; Degron fused to the C-terminus of His-TEV-eGFP; source: E. coli ΔclpP Keio strain (JW0427) (earlier Top10), pBAD, purified (HisTrap and Superdex200 in tandem); not shown: His-TEV, N-terminal, kept; eGFP, N-terminal, kept) [eGFP-AANDENYADAS]
Out: 3.02e+06
